# protocol: Equilibrium solubility in fed state simulated intestinal fluid (FeSSIF)
# Assay type: physicochemical
# experimental context: thermodynamic from solid, pH 5.0, 37° C., read-out: equilibrium solubility of crystalline DHM in FeSSIF
parameter: solubility thermodynamic

Looking for the measured solubility thermodynamic of O=C1c2c(O)cc(O)cc2O[C@H](c2cc(O)c(O)c(O)c2)[C@H]1O [DHM, dihydromyricetin] , can you help? ~140 µg/mL

* * *

# protocol: Equilibrium solubility in fasted state simulated intestinal fluid (FaSSIF)
# Type: physicochemical
# experimental context: thermodynamic from solid, pH 6.5, 37° C., read-out: equilibrium solubility of crystalline DHM in FaSSIF
parameter: solubility thermodynamic

Looking for the measured solubility thermodynamic of O=C1c2c(O)cc(O)cc2O[C@H](c2cc(O)c(O)c(O)c2)[C@H]1O [DHM, dihydromyricetin] , can you help? ~50 µg/mL
